Each recorded value in this set is attributed to the supplement of paper PMC4862054.

Tested on: CAL-148
method.notes: normalised viability (% of control), CellTiter-Blue; higher = more viable cells (about 100 = DMSO control)
study.conditions: 30 nM; incubation time: 72 h
measured.parameter: normalised viability
Hi, when you answer, please include the unit after the number. Thanks!

Before answering, review these 3 worked examples.
{"columns": ["compound", "normalised viability"],
 "data": [
  ["O=C(Nc1ccncc1)C(=O)c1cn(Cc2ccc(Cl)cc2)c2ccccc12 [Indibulin]", "92.1%"],
  ["C=C1C[C@@H]2[C@H](CC[C@]3(C)C(=O)CC[C@@H]23)[C@@]2(C)C=CC(=O)C=C12 [Exemestane]", "88.7%"],
  ["Cc1cc(Nc2cc(CN3CCOCC3)c3nc(C)c(Cc4ccc(Cl)cc4F)n3n2)n[nH]1", "87.7%"]
]}

Notebook entry, CAL-148 assay: normalised viability of CNC(=O)c1cc(Oc2ccc(NC(=O)Nc3ccc(Cl)c(C(F)(F)F)c3)c(F)c2)ccn1 [Regorafenib] = ? 90.2%

====

Form field: normalised viability (one value per entry).
Test system: MDA-MB-231
method.notes: normalised viability (% of control), CellTiter-Blue; higher = more viable cells (about 100 = DMSO control)
study.conditions: 1000 nM; incubation time: 72 h
Write down the numeric answer in % and omit the unit.

{"columns": ["given.smiles", "subject.of.test", "measured.parameter", "endpoint.unit", "result"],
 "data": [
  ["CN(C)c1nc(N(C)C)nc(N(C)C)n1", "MDA-MB-231", "normalised viability", "%", 90.9]
]}

Return reported normalised viability; argument: `Cc1ccc(NC(=O)c2ccc(CN3CCN(C)CC3)cc2)cc1Nc1nc(-c2cccnc2)cs1` 91.1

`NC(=O)c1ccc(I)c([N+](=O)[O-])c1` , same question. 89.6

====

System: DU-4475
method.notes: normalised response (% of control), CellTiter-Glo; higher = more viable cells (100 = DMSO, 0 = benzethonium chloride kill control)
study.conditions: incubation time: 72 h
Form field: normalised response (one value per entry).
Hi, when you answer, please include the unit after the number. Thanks!

Before answering, review these 2 worked examples.
{"columns": ["molecule", "subject.of.test", "result"],
 "data": [
  ["COc1cc(OC2CCN(C)CC2)ccc1Nc1ncc2c(n1)n(C1CCCC1)c(=O)n2C [AZ 3146] (1000 nM)", "DU-4475", "94.6%"],
  ["O=C(Nc1ccncc1)C(=O)c1cn(Cc2ccc(Cl)cc2)c2ccccc12 [Indibulin] (1 nM)", "DU-4475", "109%"]
]}

Return reported normalised response; argument: NC(=O)c1ccc(I)c([N+](=O)[O-])c1 [Iniparib] (1 nM) 93.8%

COc1cc2/c(=N/c3ccc(Br)cc3F)nc[nH]c2cc1OCC1CCN(C)CC1 [Vandetanib] (1 nM) , same question. 94.8%

CC(C)C[C@@H](C(=O)N[C@H](C(=O)OC1CCCC1)c1ccccc1)[C@H](O)C(=O)NO [Tosedostat] (1000 nM) , same question. 88.4%

COCC[n+]1c2c(n(Cc3cnccn3)c1C)C(=O)c1ccccc1C2=O [YM155] (10 nM) , same question. 101%

CCn1c(-c2nonc2N)nc2cnc(Oc3cccc(NC(=O)c4ccc(OCCN5CCOCC5)cc4)c3)cc21 (1 nM) , same question. 94.3%
